Reference for the values: PubChem BioAssay (NCI)

tested on: ACHN renal; assay: NCI-60 one-dose screen, 48 h (100 = growth as untreated, 0 = no growth, -100 = all killed); details: 10 µM unless noted
Compounds without any hit were thinned out: in the full panel of roughly 83,000, 20% have a hit.
measured metric: growth (%)
Provide the reading as a plain figure in %.

Recall and state the measured growth for CCN1C(=O)N(CC)C2C1NN=c1s/c(=C\c3ccccn3)c(=O)n12 (stereo not given) .
43.4

Recall and state the measured growth for COc1cc(NCCN=C(N)NC(N)=NC(C)C)c2ncccc2c1 .
94.1

Recall and state the measured growth for O=C1NC(Cc2c[nH]c3ccccc23)C(=O)N1Cc1ccc(Cl)cc1 (stereo not given) .
95

Recall and state the measured growth for CN1CCN(CCCOc2ccc3nc(Nc4ccc(C(F)(F)F)c(Cl)c4)ccc3c2)CC1 .
3.12

Recall and state the measured growth for COC(=O)C(CC(=O)c1ccc(-c2ccccc2)cc1)c1ccccc1 (stereo not given) .
41.3

Recall and state the measured growth for COc1ncc(-c2ccc3ncnc(Nc4cccc(Cl)c4)c3c2)cc1NS(=O)(=O)C1CC1 .
23.9

Recall and state the measured growth for COc1ncc(-c2ccc3ncnc(Nc4cccc(Cl)c4)c3c2)cc1NS(=O)(=O)CCN1CCOCC1 .
7.46

Recall and state the measured growth for Cn1c(C(N)=O)cc2c1-c1nc(NC3CCCCC3)ncc1CCC2 .
85.8

Recall and state the measured growth for COc1ccc(OC)c(NC(=O)c2cc(S(=O)(=O)N3CCc4ccccc43)ccc2OC)c1 .
93.3

Recall and state the measured growth for Clc1nc(Cl)c2ncn(C/C=C/Cn3cnc4c(Cl)nc(Cl)nc43)c2n1 .
90

Recall and state the measured growth for Cc1cc(-c2ccccc2)c(C)n1Cc1ccc(Cl)cc1 .
54.8

Recall and state the measured growth for COc1ccc(C2CC(=O)Nc3c2c(C)nn3-c2nc3ccccc3[nH]2)cc1OC (stereo not given) .
85.2

Recall and state the measured growth for Cc1ccc2c(c1)C(C)Cc1c(ncnc1-n1cnc3ccccc31)N2C (stereo not given) .
35.4

Recall and state the measured growth for O=S(=O)(NCCCNc1nccc(-c2c(-c3ccc(F)c(O)c3)nc3sccn23)n1)c1ccc(Cl)cc1 .
65.9

Recall and state the measured growth for COc1ccc([N+](=O)[O-])c(/C=C/C(=O)c2ccccn2)c1 .
68.9

Recall and state the measured growth for COc1ccc(S(=O)(=O)N2CCN(c3cc4c(cc3F)c(=O)c(C(=O)O)cn4C3CC3)CC2)c(OC)c1 .
94.9

Recall and state the measured growth for COc1cc2nc(N3CCC[C@@H](NC4=CC(=O)c5ccccc5C4=O)C3)nc(N)c2cc1OC .
72

Recall and state the measured growth for CCN(C(=O)c1cc2ncccc2[nH]1)[C@H]1CCC[C@@H](NCc2cccc(F)c2)C1 .
102

Recall and state the measured growth for O=C(CN1CCN(c2cc3c(cc2F)c(=O)c(C(=O)O)cn3C2CC2)CC1)Nc1ccc(C(=O)/C=C/c2ccc(Cl)cc2)cc1 .
107

Recall and state the measured growth for COc1cc2c(cc1OC)C1(C)N(CC2)C(=O)OC1(C)C (stereo not given) .
107
